- targetUnderTest: acetylcholine receptor
- assaySummary: SPR, peptide at 10 uM, AchR immobilized
measureName: Binding affinity (RU)

Worked cases, answers included:
RKATVK [6mer-1-668] = 17
RKMEIR [6mer-1-672] = 17
RKYTKR [6mer-1-694] = 27
RRESWK [6mer-1-685] = 14
KRTSFK [6mer-1-714] = 25
RRMPFK [6mer-1-716] = 11
KKHCNR [6mer-1-696] = 18
KRPKNK [6mer-1-724] = 19
KKFKPK [6mer-1-709] = 29
KKKSGK [6mer-1-729] = 23

(a) KRFWPK [6mer-1-707]
(b) KRTEWR [6mer-1-705]
(c) KKFHPR [6mer-1-703]
Request: // ascending sort on recorded Binding affinity Write the labels in rank order as requested.
Result: b, c, a
(b: 12 RU, c: 18 RU, a: 26 RU)

(P) KRDSPK [6mer-1-667]
(Q) RKIDMK [6mer-1-693]
Request: Kindly identify the item with the lower Binding affinity figure among these two: P and Q Your choice should be expressed through its label.
Result: Q

(I) KKKHEK [6mer-1-708]
(II) KKPSNK [6mer-1-712]
Request: Which of the two items, I and II , has the greater recorded Binding affinity? Your choice should be expressed through its label.
Result: II

(I) KKNMVR [6mer-1-671]
(II) KRDSMR [6mer-1-683]
Request: Which of the two items, I and II , has the greater recorded Binding affinity? Your choice should be expressed through its label.
Result: II
